Tested on: P388
assay remarks: In vitro inhibition of P388 murine leukemia cell (R/ADR) growth
Assay type: functional
condition notes: Mus musculus, read-out: ED50 (the source's name)
recorded endpoint: EC50 (µM)

Consider the following illustrative entries.
# smiles notation, recorded endpoint, number
measured = [
    ("NCCNCCCNc1cccc2c1C(=O)c1ccccc1C2=O", "EC50", 8),
    ("NCCCCCCNc1cccc2c1C(=O)c1ccccc1C2=O", "EC50", 45),
    ("NCCCNc1cccc2c1C(=O)c1ccccc1C2=O", "EC50", 45),
    ("NCCNCCCCCCNc1cccc2c1C(=O)c1ccccc1C2=O", "EC50", 8),
    ("NCCCCNc1cccc2c1C(=O)c1ccccc1C2=O", "EC50", 50),
]

(1) NCCNCCNc1cccc2c1C(=O)c1ccccc1C2=O
(2) NCCNCCCOc1cccc2c1C(=O)c1ccccc1C2=O
(3) NCCCCCCCCCCCCNc1cccc2c1C(=O)c1ccccc1C2=O
Give the ascending ranking of the items by reported EC50. Response field: labels, in requested order.
1, 3, 2

###

Test system: P388
assay remarks: In vitro inhibition of P388 murine leukemia cell (R/ADR) growth
Format: functional
condition notes: Mus musculus, read-out: ED50 (the source's name)
// reported EC50 per item

# smiles notation, EC50
measured = [
    ("NCCNCCOCCOc1cccc2c1C(=O)c1ccccc1C2=O", "> 60 µM"),
    ("NCCCOc1cccc2c1C(=O)c1ccccc1C2=O", "> 10 µM"),
]

Supply recorded EC50 for O=C1c2ccccc2C(=O)c2c(NCCCNCCNCCO)cccc21 here.
> 10 µM

Sourced from ChEMBL document CHEMBL1125744
